target: human full length HSD11 β 1 (Homo sapiens); construct: transient expression of human full length HSD11 β 1 expression vector; host or cells: CHO cells (transient transfection); experiment: In Vitro HSD11β1 Inhibition Assay; assay type: cell-based; conditions: CHO cells transiently expressing human HSD11β1; 200 nM cortisone+500 uM NADPH overnight; cortisone to cortisol by LC/MS-MS; read-out: 11βHSD1 (IC50)
Sequence (P28845 whole entry): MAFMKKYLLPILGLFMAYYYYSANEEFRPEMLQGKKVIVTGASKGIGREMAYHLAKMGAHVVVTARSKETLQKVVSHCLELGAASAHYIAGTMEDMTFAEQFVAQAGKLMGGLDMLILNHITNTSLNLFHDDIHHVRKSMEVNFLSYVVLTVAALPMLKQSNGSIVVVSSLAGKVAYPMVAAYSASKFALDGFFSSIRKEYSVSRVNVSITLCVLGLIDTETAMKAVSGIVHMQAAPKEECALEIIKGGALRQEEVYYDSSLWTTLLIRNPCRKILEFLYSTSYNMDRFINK
pIC50: −log10 of the molar value.
Recorded pIC50 values for a group of molecules are listed next.

CC(CC(=O)N1CCCC2C(C(=O)O)CCCC21)c1c[nH]c2cccc(-c3ccco3)c12 (single isomer, unassigned) [Compound 224]: > 7.00

INPUT: Check the records and state pIC50 for CC(CC(=O)N1CCCC2C(C(=O)O)CCCC21)c1c[nH]c2cccc(-c3ccc(F)o3)c12 (stereo not shown) [Compound 245]
OUTPUT: > 7.00

INPUT: Retrieve pIC50 measured for O=C(CCc1c[nH]c2cccc(F)c12)N1CCCC2CCCCC21 (stereo not shown) [Compound 44] and print it.
OUTPUT: > 7.00

INPUT: # return recorded pIC50 for entry CC(CC(=O)N1CCCC2C(C(=O)O)CCCC21)c1c[nH]c2cccc(-c3ccc(F)o3)c12 (single isomer, unassigned) [Compound 251]
OUTPUT: > 7.00

INPUT: Give recorded pIC50. CC(C)C(CC(=O)N1CCCC2CCCCC21)c1c[nH]c2ccccc12 (single isomer, unassigned) [Example 118]
OUTPUT: > 7.00

INPUT: Consider the molecule CC(CC(=O)N1CCCC2(CO)CCCCC12)c1c[nH]c2ncccc12 (stereo not shown) [Example 146] and give its recorded pIC50.
OUTPUT: < 6.60

INPUT: Consider the molecule CC(C)C(CC(=O)N1CCCC2CCCCC21)c1c[nH]c2ncccc12 (stereo not shown) [Example 164] . State its measured pIC50.
OUTPUT: 6.82 to 7.00
